System: ACHN renal
Assay: NCI tumour cell line growth inhibition, 48 h

{"COMPOUND": "COc1ccc(OC)c(-c2cc(-c3ccc(Cl)cc3)nn2-c2ccccc2)c1", "TGI": "> 100 µM"}
{"COMPOUND": "CO[C@H]1/C=C/O[C@@]2(C)Oc3c(C)c(O)c4c(O)c(c(/C=N/N5C(C)CN(Cc6ccc(C#N)cc6)CC5C)c(O)c4c3C2=O)NC(=O)/C(C)=C\\C=C\\[C@H](C)[C@H](O)[C@@H](C)[C@@H](O)[C@@H](C)[C@H](OC(C)=O)[C@@H]1C (stereo partly drawn)", "TGI": "16.2 µM"}
{"COMPOUND": "CC1=C/C(=N\\NS(=O)(=O)c2ccc([N+](=O)[O-])cc2)CC(C)(C)C1", "TGI": "> 100 µM"}
